MEASUREMENT_NOTES: Toxicity liver stage against HepG2, at 10uM
Format: cell-based
Parameters: test concentration 10 uM, cell line HepG2-A16-CD81EGFP
CONDITION: human, HepG2-A16-CD81EGFP cells; read-out: INHIBITION
MEASURED_QUANTITY: cytotoxicity at 10 µM (%)

> print(dat)
                                    molecule      measured.quantity  reported
 1  Cn1ccnc1CNC(=O)N(CCCO)C1CCc2ccccc21 (stereo not drawn)  cytotoxicity at 10 µM     -11.6
 2  CS(=O)(=O)N1CCC2(CC1)CC(NCc1ccccn1)c1ccccc12 (stereo not drawn)  cytotoxicity at 10 µM      -109
 3  CN(C)c1cc(C(=O)NC2(c3cccc(F)c3)CCOCC2)ccn1  cytotoxicity at 10 µM     -1.31
 4  Cc1csc(CNC(=O)NCC(O)c2cccc(Cl)c2)n1 (stereo not drawn)  cytotoxicity at 10 µM     -14.6
 5  CN(C)Cc1cnn(-c2ccccc2C(=O)N(C)Cc2ccccc2)c1  cytotoxicity at 10 µM     -6.54
 6  Cn1nccc1-c1ccc2nc(C3CCN(CC4CC4)CC3)nn2c1  cytotoxicity at 10 µM      5.85
 7  CC(=O)N1N=C(c2ccco2)OC1C(=O)NCCc1ccc(F)cc1 (stereo not drawn)  cytotoxicity at 10 µM     -1.92
 8     CN(CCOc1cccc(Cl)c1)Cc1nnc(C(C)(C)C)o1  cytotoxicity at 10 µM      8.65
 9  COCCc1noc(CNC2CCSC2)n1 (stereo not drawn)  cytotoxicity at 10 µM       -15
10  CC(NC(=O)COCC(F)(F)F)c1nnc2n1CCCCC2 (stereo not drawn)  cytotoxicity at 10 µM     -12.3
11       O=C(c1cccnc1-n1cncn1)N1CCc2ccccc2C1  cytotoxicity at 10 µM     -13.9
12  COCCN1CCC2(C1)c1ccccc1S(=O)(=O)N2Cc1ccccc1 (stereo not drawn)  cytotoxicity at 10 µM      10.5
13  Cc1noc(C)c1CN(C)C(=O)c1nc(N2CCCC2)ncc1Cl  cytotoxicity at 10 µM     -41.6
14  Cc1nccn1CCCn1cncc1-c1ccc2c(c1)CCC(C)N2C (stereo not drawn)  cytotoxicity at 10 µM     -4.98
15  COc1ncccc1NC(=O)NC1CCCN(c2ncccn2)C1 (stereo not drawn)  cytotoxicity at 10 µM     -28.8
16  CN(CCCc1cnn(C)c1)C(=O)C1CCC(=O)N(C2CCCC2)C1 (stereo not drawn)  cytotoxicity at 10 µM      5.89
17           CNCC[C@H]1CC(C)(C)Oc2ccc(C)cc21  cytotoxicity at 10 µM     0.526
18  Cc1cccc(CN2CCCC2c2cccc(Nc3nccs3)n2)c1 (stereo not drawn)  cytotoxicity at 10 µM      0.81
19    CCOc1c(OC)cc(C=Cc2ncc(C(=O)NC)s2)cc1OC  cytotoxicity at 10 µM      1.62
20  COc1cc2c(cc1OC)CCN(C(=O)Cn1nc(C)cc1C)CC2  cytotoxicity at 10 µM      2.63
21  c1ccc(Cc2noc(CNC3CCc4ncnn4C3)n2)cc1 (stereo not drawn)  cytotoxicity at 10 µM     -5.99
22  CCN1C[C@H]2C3(CCN(S(=O)(=O)CC)CC3)CC[C@@]2(C(=O)N(C)C)C1  cytotoxicity at 10 µM      2.84
23       N#CC1(C(=O)N2CCCN(c3nccs3)CC2)CCCC1  cytotoxicity at 10 µM     -11.1
24  CN(CCO)Cc1cc(Cl)ccc1OCC(O)CN1CCCCCC1 (stereo not drawn)  cytotoxicity at 10 µM     -5.09
25       CC(C)N1CCC(c2n[nH]cc2S(C)(=O)=O)CC1  cytotoxicity at 10 µM     -7.22
26  c1cc(CN2CCCC3(COCCN(Cc4c[nH]nn4)C3)C2)cs1 (stereo not drawn)  cytotoxicity at 10 µM      8.59
27  NC(=O)c1ccc(N2CCN(Cc3cccc4nsnc34)CC2)nc1  cytotoxicity at 10 µM      34.1
28  O=C(c1cccnc1)N1CCN2C(=O)N(Cc3ccc(F)cc3)C[C@H]2C1  cytotoxicity at 10 µM    -0.756
29  CCC(=O)N1CCc2c(O)nc(C3CCCCN3C(=O)C3CC3)nc2C1 (stereo not drawn)  cytotoxicity at 10 µM       3.3
30              Fc1ccccc1Sc1ccccc1CNC1=NCCN1  cytotoxicity at 10 µM      12.5
31            COCCN(Cc1ccoc1)C(=O)c1ccccc1Cl  cytotoxicity at 10 µM      9.12
32  CNC(=O)C1(CCCc2cnccn2)CCN1Cc1ccc(C)cc1 (stereo not drawn)  cytotoxicity at 10 µM     0.615
33  Cc1cc(C)c2[nH]c(C)c(CC(=O)N(C)CCN(C)C)c2c1  cytotoxicity at 10 µM      2.49
34    Cc1ncc2c(n1)CCN(Cc1nc(Cc3ccccc3)no1)C2  cytotoxicity at 10 µM     0.414
35  Cn1cc(N2CC3(CCN(CC4CCOCC4)CC3)OCC2=O)cn1  cytotoxicity at 10 µM     -9.29
36  COc1ccccc1N1CC(NC(=O)Cn2cc(C)nn2)CC1=O (stereo not drawn)  cytotoxicity at 10 µM      11.6
37  C1CCCN(CC2CCCN(Cc3noc(C4CC4)n3)C2)CC1 (stereo not drawn)  cytotoxicity at 10 µM     -12.7
38  Cc1cnn(CCC(=O)N2CCC3(CCC(=O)N(CC4CC4)C3)CC2)c1  cytotoxicity at 10 µM     -2.62
39     COCCN1CCC(CNc2nccc(-c3cnn(C)c3)n2)CC1  cytotoxicity at 10 µM      -130
40  CCOc1ccc(C(C)NC(=O)N2CCC(C(N)=O)CC2)cc1OC (stereo not drawn)  cytotoxicity at 10 µM     -4.56
41  CCn1ncc2c1CCCC2NCc1cc(C)ccc1OC (stereo not drawn)  cytotoxicity at 10 µM       1.8
42  CCN1CCCC1CNC(=O)CCc1cccs1 (stereo not drawn)  cytotoxicity at 10 µM     -9.09
43     CN(Cc1nnc2n1CCC2)C(=O)c1ccc2c(c1)OCO2  cytotoxicity at 10 µM     -18.2
44  Cc1nnsc1CN1CCCC1c1nc(-c2ccccc2)no1 (stereo not drawn)  cytotoxicity at 10 µM     -45.8
45      N#Cc1c(C2CC2)cc(-c2ccc(F)c(F)c2)nc1N  cytotoxicity at 10 µM     -5.73
46  CCc1cnc(CN(C)C(=O)NC2CCN(CC3CC3)C2)s1 (stereo not drawn)  cytotoxicity at 10 µM     -3.86
47  CC(=O)N1[C@H](Cn2cncn2)C[C@@H]2CN(c3ncccn3)CC[C@@H]21  cytotoxicity at 10 µM     -2.96
48  O=C(NC[C@H]1OC[C@@H](NC2CCC(F)(F)CC2)[C@@H]1O)C1CC1  cytotoxicity at 10 µM     -1.39
